target: HLA class I molecule A*2402 (Homo sapiens, UniProt P04439, D101N/D140Y/D185E/E176V/E190D/F33S/G103R/G107R/I119L/I121M/I306V/K335N/L105A/L180Q/L300P/N151K/N90K/Q86E/Q94H/R106L/R138H/R89G/T104I/T345S/V100E/W191G/Y123F); construct: purchased ProImmune Ltd., Oxford, UK; type: binding; conditions: REVEAL assay, assembly of peptide-HLA complex by ELISA with conformation-dependent anti-HLA antibody, relative to positive control peptide for that allele, comparable within an allele only
Endpoint Label: Score (experimentally measured binding affinity, % binding compared to control peptide) (%)
Quick note: give the figure in %, leave out the unit.

Incoming: Tell me the measured Score (experimentally measured binding affinity, % binding compared to control peptide) of GYTRQLEGE [HTLV-1 nonamer peptide] , please.
Outgoing: 35.37

Incoming: Request: SWASILQGL [HTLV-1 nonamer peptide]
Outgoing: 123.67

Incoming: Request: EYLKRKEEE [HTLV-1 nonamer peptide]
Outgoing: 0

Incoming: Request: NYSLLASLL [HTLV-1 nonamer peptide]
Outgoing: 105.08

Incoming: Request: IWQGDITHF [HTLV-1 nonamer peptide]
Outgoing: 64.83

Incoming: Request: PYHAFVERL [HTLV-1 nonamer peptide]
Outgoing: 113.04

Incoming: Request: KYLYHYLRT [HTLV-1 nonamer peptide]
Outgoing: 2.63

Incoming: Request: KYKNTLYRL [HTLV-1 nonamer peptide]
Outgoing: 124.9

Incoming: Request: IFSRSASPI [HTLV-1 nonamer peptide]
Outgoing: 62.41

Incoming: Request: WQMKDLQAI [HTLV-1 nonamer peptide]
Outgoing: 0

Value source: paper PMC2944806
